test system: BaF3_HER2WT cells; assay: Cell growth inhibition assay, BaF3_HER2WT; assay type: cell-based; settings: 3 days treatment, CellTiterGlo 2.0, read-out: HER2 WT IC50 (nM), cell growth inhibition
For each record, write down the corresponding IC50.

Field IC50 (entry Cc1cc(Nc2ncnn3ccc(C4CCCN(C(=O)C(F)Cl)CC4)c23)ccc1Oc1ccn2ncnc2c1 (single isomer, unassigned) [Examples 145, 146, 147 and 148, third eluting isomer] ) reads 200 to 500 nM

Recorded IC50 (compound Cc1cc(Nc2ncnn3ccc(C4CCCN(C(=O)/C=C/CN(C)C)C4)c23)ccc1Oc1ccn2ncnc2c1 (single isomer, unassigned) [Examples 107 and 108, first eluting isomer] ): < 200 nM

Short answer for Cc1cc(Nc2ncnn3ccc(C4CCCN(C(=O)C(F)Cl)CC4)c23)ccc1Oc1ccn2ncnc2c1 (single isomer, unassigned) [Examples 145, 146, 147 and 148, second eluting isomer] : IC50 was < 200 nM

###

The reader will find pIC50 measurements below, all made with wtEGFR (Homo sapiens (Human), UniProt P00533).
Sequence (P00533 25-1210): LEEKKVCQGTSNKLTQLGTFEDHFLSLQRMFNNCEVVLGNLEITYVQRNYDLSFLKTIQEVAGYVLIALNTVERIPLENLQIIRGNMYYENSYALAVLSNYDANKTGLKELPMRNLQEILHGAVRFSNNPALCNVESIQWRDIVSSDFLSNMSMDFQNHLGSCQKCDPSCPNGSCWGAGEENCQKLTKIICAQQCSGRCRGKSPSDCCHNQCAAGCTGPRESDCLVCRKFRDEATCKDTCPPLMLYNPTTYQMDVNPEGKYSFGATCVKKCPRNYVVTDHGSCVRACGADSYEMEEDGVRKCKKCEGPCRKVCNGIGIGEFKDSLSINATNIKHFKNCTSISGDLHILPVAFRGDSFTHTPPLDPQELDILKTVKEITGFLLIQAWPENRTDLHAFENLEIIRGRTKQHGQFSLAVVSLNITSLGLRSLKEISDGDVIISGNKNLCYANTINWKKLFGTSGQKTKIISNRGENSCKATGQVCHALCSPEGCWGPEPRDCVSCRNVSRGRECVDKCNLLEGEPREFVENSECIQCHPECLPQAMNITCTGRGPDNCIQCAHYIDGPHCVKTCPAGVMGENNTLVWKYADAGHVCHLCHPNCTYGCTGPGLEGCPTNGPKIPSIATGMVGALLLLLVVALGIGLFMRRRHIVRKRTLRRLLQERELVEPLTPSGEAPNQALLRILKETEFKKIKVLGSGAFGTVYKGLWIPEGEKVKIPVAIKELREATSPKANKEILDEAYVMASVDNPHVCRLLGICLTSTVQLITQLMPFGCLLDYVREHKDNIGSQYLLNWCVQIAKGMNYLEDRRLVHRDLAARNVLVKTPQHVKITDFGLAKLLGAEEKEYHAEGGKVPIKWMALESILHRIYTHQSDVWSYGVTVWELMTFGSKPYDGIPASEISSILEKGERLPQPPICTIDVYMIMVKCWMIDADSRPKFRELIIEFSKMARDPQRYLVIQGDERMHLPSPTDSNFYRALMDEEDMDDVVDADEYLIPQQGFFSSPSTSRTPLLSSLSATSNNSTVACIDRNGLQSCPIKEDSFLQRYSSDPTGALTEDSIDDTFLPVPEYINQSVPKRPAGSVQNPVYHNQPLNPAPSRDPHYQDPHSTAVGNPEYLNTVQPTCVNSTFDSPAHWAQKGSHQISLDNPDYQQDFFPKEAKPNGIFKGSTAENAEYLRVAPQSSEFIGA
pIC50: −log10 of the molar value.

Sample "Cc1cc(Nc2ncnn3ccc(C4CN(C(=O)/C=C/CN5CCCC5)C4)c23)ccc1Oc1ccn2ncnc2c1" ; pIC50 observed: > 6.70

Entry C=CC(=O)N1CCCC(c2ccn3ncnc(Nc4ccc(Oc5ccn6ncnc6c5)c(C)c4)c23)C1 (stereo not drawn) , pIC50 reported as > 6.70

// Cc1cc(Nc2ncnn3ccc([C@@H]4CCCN(C(=O)/C=C/CN(C)C)CC4)c23)ccc1Oc1ccn2ncnc2c1 (single isomer, unassigned) : pIC50 value = > 6.70

###

For each of the compounds below, state its IC50.
system: BaF3_HER2WT cells; assay: Cell growth inhibition assay, BaF3_HER2WT; format: cell-based; details: 3 days treatment, CellTiterGlo 2.0, read-out: HER2 WT IC50 (nM), cell growth inhibition

Given the compound Cc1cc(Nc2ncnn3ccc(C4CCCN(C(=O)/C=C/CN(C)C)C4)c23)ccc1Oc1ccn2ncnc2c1 (single isomer, unassigned) [Examples 107 and 108, second eluting isomer] and test system BaF3_HER2WT cells, the measured IC50 is 500 to 1500 nM

Param item: C=C(CN(C)C)C(=O)N1C2CCC1CC(c1ccn3ncnc(Nc4ccc(Oc5ccn6ncnc6c5)c(C)c4)c13)C2 (single isomer, unassigned) [Examples 126 and 127, second eluting isomer] ; param system: BaF3_HER2WT cells; output IC50: < 200 nM

Result for Cc1cc(Nc2ncnn3ccc(C4CC5CCC(C4)N5C(=O)/C=C/CN(C)C)c23)ccc1Oc1ccn2ncnc2c1 (single isomer, unassigned) [Examples 122 and 123, second eluting isomer] , tested on BaF3_HER2WT cells, IC50: < 200 nM

BaF3_HER2WT cells data for C=C(CN(C)C)C(=O)N1CC2CCC1CC2c1ccn2ncnc(Nc3ccc(Oc4ccn5ncnc5c4)c(C)c3)c12 (single isomer, unassigned) [Examples 135 and 136, second eluting isomer] ; its IC50: < 200 nM

The value of IC50 recorded for Cc1cc(Nc2ncnn3ccc(C4CCN(C(=O)/C=C/CN(C)C)C4)c23)ccc1Oc1ccn2ncnc2c1 (single isomer, unassigned) [Examples 99 and 100, second eluting isomer] when tested on BaF3_HER2WT cells reads < 200 nM

Record Cc1cc(Nc2ncnn3ccc(C4CC5CCC4CN5C(=O)/C=C/CN(C)C)c23)ccc1Oc1ccn2ncnc2c1 (single isomer, unassigned; first eluting) [Examples 137 and 138, first eluting isomer] has BaF3_HER2WT cells IC50 equal to < 200 nM

// assay BaF3_HER2WT cells, entry C=C(CN(C)C)C(=O)N1CCCC(c2ccn3ncnc(Nc4ccc(Oc5ccn6ncnc6c5)c(C)c4)c23)CC1 (single isomer, unassigned) [Examples 143 and 144, second eluting isomer] , IC50 value = < 200 nM

# value of IC50, BaF3_HER2WT cells, item C=CC(=O)N1CC2CCC1CC2c1ccn2ncnc(Nc3ccc(Oc4ccn5ncnc5c4)c(C)c3)c12 (single isomer, unassigned) [Examples 139 and 140, second eluting isomer] = 500 to 1500 nM

C=CC(=O)N1CC2CCC1CC2c1ccn2ncnc(Nc3ccc(Oc4ccn5ncnc5c4)c(C)c3)c12 (single isomer, unassigned) [Examples 139 and 140, first eluting isomer] tested on BaF3_HER2WT cells gave IC50: < 200 nM

###

tested on: BaF3_EGFRWT cells; test: Cell growth inhibition assay, BaF3_EGFRWT; type: cell-based; conditions: 72 h, 80 ng/mL recombinant human EGF, 3 days treatment, CellTiterGlo 2.0, read-out: EGFR WT IC50 (nM), cell growth inhibition
measuredProperty: IC50

Form field IC50, entry "Cc1cc(Nc2ncnn3ccc(C4CCN(C(=O)/C=C/CN(C)C)CC4)c23)ccc1Oc1ccn2ncnc2c1" : 1500 to 5000 nM

For record "Cc1cc(Nc2ncnn3ccc(N4CC(NC(=O)/C=C/CN(C)C)C4)c23)ccc1Oc1ccn2ncnc2c1" the listed IC50 is 1500 to 5000 nM

# compound C=CC(=O)NC1CCN(c2ccn3ncnc(Nc4ccc(Oc5ccn6ncnc6c5)c(C)c4)c23)C1 (stereo not shown) ; its IC50 = 1500 to 5000 nM

Form: compound = C=CC(=O)N1C2CCC1CC(c1ccn3ncnc(Nc4ccc(Oc5ccn6ncnc6c5)c(C)c4)c13)C2 (single isomer, unassigned) [Examples 124 and 125, first eluting isomer] ; IC50 = < 200 nM
